Biological target: Kappa-type opioid receptor (Homo sapiens, UniProt P41145)
Sequence (P41145 whole entry): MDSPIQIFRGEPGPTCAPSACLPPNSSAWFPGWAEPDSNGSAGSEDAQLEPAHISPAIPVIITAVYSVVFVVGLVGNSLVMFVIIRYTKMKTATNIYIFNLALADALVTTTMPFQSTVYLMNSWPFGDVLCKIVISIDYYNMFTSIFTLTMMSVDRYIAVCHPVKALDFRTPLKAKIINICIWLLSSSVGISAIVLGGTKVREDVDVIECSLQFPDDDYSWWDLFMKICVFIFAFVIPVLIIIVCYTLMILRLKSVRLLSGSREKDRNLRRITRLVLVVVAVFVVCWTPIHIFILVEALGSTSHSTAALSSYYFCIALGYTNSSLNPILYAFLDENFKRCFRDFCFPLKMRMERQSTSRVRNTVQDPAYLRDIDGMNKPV
Format: functional
pEC50: −log10 of the molar value.
propertyLabel: pEC50

[[record]]
smilestext = "CC(C)(C)c1ccc(CSc2nnc(-c3ccccn3)n2Cc2ccco2)cc1"
quantitativeresult = 5.99


---

Target: UniProtKB P11413
Sequence (P11413 whole entry): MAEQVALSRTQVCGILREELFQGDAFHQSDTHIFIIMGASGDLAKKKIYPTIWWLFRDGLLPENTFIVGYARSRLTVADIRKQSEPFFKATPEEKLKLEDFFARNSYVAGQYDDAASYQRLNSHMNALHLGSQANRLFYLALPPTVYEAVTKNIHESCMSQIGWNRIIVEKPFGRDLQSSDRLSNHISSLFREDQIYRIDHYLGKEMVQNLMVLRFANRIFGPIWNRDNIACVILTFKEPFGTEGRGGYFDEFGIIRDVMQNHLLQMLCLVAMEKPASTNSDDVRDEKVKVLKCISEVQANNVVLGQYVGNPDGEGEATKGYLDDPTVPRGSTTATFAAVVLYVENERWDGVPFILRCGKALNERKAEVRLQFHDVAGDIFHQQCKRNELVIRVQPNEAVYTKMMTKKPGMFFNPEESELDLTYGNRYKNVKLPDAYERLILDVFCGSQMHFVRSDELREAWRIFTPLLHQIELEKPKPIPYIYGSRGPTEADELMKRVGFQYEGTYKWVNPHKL
Assay: inhibition of Homo sapiens G6PD, dose series – biochemical, fluorescence, selectivity assay for P. falciparum G6PD inhibitor project, dose response (AID 504792)
Type: functional
The source made the active and inactive calls.
propertyLabel: IC50

[[record]]
molecule = "CCc1cc(-c2n[nH]c(C)c2-c2nc3ccccc3n2C)c(O)cc1O"
result = "> 80 µM (inactive)"

[[record]]
molecule = "CC1CCc2[nH]c3ccc(C(=O)N(C)CC(=O)Nc4ccccc4C(F)(F)F)cc3c2C1 (centres undefined)"
result = "> 80 µM (inactive)"

[[record]]
molecule = "C/C(Cn1nnc([N+](=O)[O-])n1)=N\\NC(=O)c1ccc(Cl)c(Cl)c1"
result = "> 80 µM (inactive)"

[[record]]
molecule = "Cc1ccc2nc(SCC(=O)N/N=C/c3ccco3)cc(C)c2c1"
result = "41.8 µM (inactive)"


---

Target: Tyrosine-protein phosphatase non-receptor type 5 (Homo sapiens, UniProt P54829)
Sequence (P54829 whole entry): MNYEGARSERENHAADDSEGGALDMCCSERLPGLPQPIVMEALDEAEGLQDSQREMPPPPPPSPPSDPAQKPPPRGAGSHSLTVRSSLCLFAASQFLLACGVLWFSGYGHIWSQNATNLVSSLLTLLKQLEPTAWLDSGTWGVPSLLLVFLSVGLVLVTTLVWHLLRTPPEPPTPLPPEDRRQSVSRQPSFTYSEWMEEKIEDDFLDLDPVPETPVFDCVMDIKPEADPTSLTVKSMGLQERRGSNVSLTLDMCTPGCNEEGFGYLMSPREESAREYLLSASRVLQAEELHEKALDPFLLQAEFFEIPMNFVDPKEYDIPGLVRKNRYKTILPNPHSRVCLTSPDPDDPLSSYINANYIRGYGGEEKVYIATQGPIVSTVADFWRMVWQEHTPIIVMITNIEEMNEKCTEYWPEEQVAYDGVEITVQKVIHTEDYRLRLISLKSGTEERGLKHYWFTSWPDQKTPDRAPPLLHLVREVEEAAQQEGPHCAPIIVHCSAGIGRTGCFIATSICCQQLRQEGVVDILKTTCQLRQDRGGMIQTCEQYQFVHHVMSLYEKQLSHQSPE
Assay: PTPN5 enzyme inhibition – biochemical, fluorescence intensity, uHTS hits, confirmation (AID 602372)
Format: functional
Settings: read-out: IC50_Mean
Active and inactive are the calls of the source.
Outcome codes: active, inactive

[[record]]
smilestext = "NS(=O)(=O)c1ccc(NC(=S)N2CCC(Cc3ccccc3)CC2)cc1"
targetundertest = "Tyrosine-protein phosphatase non-receptor type 5 (Homo sapiens, UniProt P54829)"
grouplabel = "inactive"

[[record]]
smilestext = "O=C(COc1ccc(/C=N/NC(=O)c2ccc(O)cc2)cc1)Nc1cccc([N+](=O)[O-])c1"
targetundertest = "Tyrosine-protein phosphatase non-receptor type 5 (Homo sapiens, UniProt P54829)"
grouplabel = "active"

[[record]]
smilestext = "NC(=O)C1(N2CCCCC2)CCN(C(=S)Nc2ccc(S(N)(=O)=O)cc2)CC1"
targetundertest = "Tyrosine-protein phosphatase non-receptor type 5 (Homo sapiens, UniProt P54829)"
grouplabel = "active"

[[record]]
smilestext = "O=C1NN(c2cccc(Br)c2)C(=O)/C1=C\\c1ccc(N2CCOCC2)cc1"
targetundertest = "Tyrosine-protein phosphatase non-receptor type 5 (Homo sapiens, UniProt P54829)"
grouplabel = "inactive"


---

System: Streptococcus
Assay: GAS UMAA2166 growth inhibition – luminescence, BacTiterGlo, counter-screen for streptokinase expression inhibitor project, dose response (AID 1915);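 further: potency for reduction of bacterial viability or growth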
Type: functional, organism-based
Calls of active or inactive are those of the source.
propertyLabel: EC50

[[record]]
compound = "CCCCn1c(=O)c(C(=O)NCCc2ccccc2)c(O)c2ccccc21"
propertylabel = "EC50"
result = "> 150 µM (not active)"

[[record]]
compound = "O=C(c1ccccc1)c1cc2ccc(O)cc2oc1=O"
propertylabel = "EC50"
result = "18.5 µM (active)"

[[record]]
compound = "Cc1cc(C)c(OCC(=O)Nc2ccccc2N2CCCCC2)c(C)c1"
propertylabel = "EC50"
result = "15.7 µM (active)"

[[record]]
compound = "CCc1nc2c(cnn2-c2ccc(Cl)cc2)c(=O)n1-c1ccc(OC)cc1"
propertylabel = "EC50"
result = "> 150 µM (not active)"

[[record]]
compound = "Cc1cccc(/C=N/NC(=O)Cc2ccc(Cl)cc2)c1O"
propertylabel = "EC50"
result = "7.4 µM (active)"

[[record]]
compound = "Fc1ccc(-c2csc3ncnc(N4CCc5ccccc5C4)c23)cc1"
propertylabel = "EC50"
result = "> 50 µM (not active)"

[[record]]
compound = "O=C(CSc1nc2ccccc2c(=O)n1NC(=O)c1ccccc1)c1ccc(Cl)cc1"
propertylabel = "EC50"
result = "> 150 µM (not active)"

[[record]]
compound = "C=CCc1cccc(/C=N/NC(=O)C(=O)Nc2ccc(C)cc2)c1O"
propertylabel = "EC50"
result = "> 150 µM (not active)"

[[record]]
compound = "N=C(N)N/N=C/c1ccc(N(c2ccccc2)c2ccccc2)cc1"
propertylabel = "EC50"
result = "3.39 µM (active)"

[[record]]
compound = "CCN(CC)C(=S)Sc1c(O)nc2ccc(Cl)cc2c1-c1ccccc1"
propertylabel = "EC50"
result = "1.8 µM (active)"

[[record]]
compound = "Nc1ccc2[nH]c(-c3ccc(Cl)cc3)nc2c1"
propertylabel = "EC50"
result = "> 150 µM (not active)"

[[record]]
compound = "FC(F)(F)c1cccc(NC(S)=Nc2ccc(Cl)c(Cl)c2)c1"
propertylabel = "EC50"
result = "6.78 µM (active)"

[[record]]
compound = "CC(=O)OCC1=C(C(=O)O)N2C(=O)C(NC(=O)CCn3nc(C)c(Cl)c3C)C2SC1 (stereo not drawn)"
propertylabel = "EC50"
result = "1.31 µM (active)"


---

Target: Endoribonuclease toxin MazF (Escherichia coli K-12)
Sequence (P0AE70 whole entry): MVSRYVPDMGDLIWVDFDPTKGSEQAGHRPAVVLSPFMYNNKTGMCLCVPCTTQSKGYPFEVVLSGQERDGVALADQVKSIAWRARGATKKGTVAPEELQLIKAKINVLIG
Assay: activation of MazEF endoribonuclease cleavage – biochemical, fluorescence, single-stranded RNA substrate, uHTS hits, dose response (AID 588481)
Format: functional
Activity calls are given as the source filed them.
Classes used: class 1 = active, class 0 = inactive

[[record]]
compound = "CCC(=O)Oc1ccc2c(c1)O/C(=C\\c1ccco1)C2=O"
grouplabel = "class 0"

[[record]]
compound = "CCOn1c(=O)c(-c2cc3ccccc3o2)[n+]([O-])c2ccccc21"
grouplabel = "class 0"

[[record]]
compound = "CCN(CC)CCn1c(=O)n(-c2ccc(Cl)cc2)c(=O)c2c3c(sc21)CN(C)CC3"
grouplabel = "class 0"

[[record]]
compound = "Cc1nnc(N2C(=O)C(O)=C(C(=O)c3ccco3)C2c2ccc(C(C)(C)C)cc2)s1 (centres undefined)"
grouplabel = "class 0"

[[record]]
compound = "Cn1cccc1/C=C1\\SC(=O)N(c2ccccc2)C1=O"
grouplabel = "class 0"

[[record]]
compound = "Cc1c(C(=O)Oc2cc(N)n(S(C)(=O)=O)n2)cccc1[N+](=O)[O-]"
grouplabel = "class 1"

[[record]]
compound = "O=C(CSc1nc(-c2ccccc2)nc2ccccc12)Nc1nccs1"
grouplabel = "class 0"

[[record]]
compound = "CC(=O)c1cc(NC(=O)c2cccc(C(F)(F)F)c2)c(=O)oc1/C=C/N(C)C"
grouplabel = "class 0"

[[record]]
compound = "CCN1C(=S)SC(=O)C1=C1C=C(C)OC(C)=C1"
grouplabel = "class 0"


---

Molecular target: Luciferin 4-monooxygenase (Photinus pyralis, UniProt P08659)
Sequence (P08659 whole entry): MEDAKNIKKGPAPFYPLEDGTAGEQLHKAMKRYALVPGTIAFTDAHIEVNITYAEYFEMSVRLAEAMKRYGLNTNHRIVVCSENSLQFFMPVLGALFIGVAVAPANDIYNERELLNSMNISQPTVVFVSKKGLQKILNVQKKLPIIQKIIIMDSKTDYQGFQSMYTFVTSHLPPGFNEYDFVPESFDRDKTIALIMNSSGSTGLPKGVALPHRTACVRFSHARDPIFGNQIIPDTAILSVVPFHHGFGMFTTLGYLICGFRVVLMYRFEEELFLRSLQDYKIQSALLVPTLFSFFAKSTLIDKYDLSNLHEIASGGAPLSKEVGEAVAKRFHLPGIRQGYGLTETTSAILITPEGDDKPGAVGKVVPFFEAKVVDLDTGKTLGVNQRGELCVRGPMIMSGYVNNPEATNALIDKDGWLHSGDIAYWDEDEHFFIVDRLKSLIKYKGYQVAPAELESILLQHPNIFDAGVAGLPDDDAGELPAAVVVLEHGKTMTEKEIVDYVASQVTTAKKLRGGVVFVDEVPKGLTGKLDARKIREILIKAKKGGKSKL
Experiment: inhibition of purified Photinus pyralis luciferase – biochemical, luminescence, dose response (AID 1891)
Active and inactive are the calls of the source.
Catalogue of EC50 values
propertyLabel: EC50

[[record]]
compound = "Cc1c(C(=O)N2CCCC2)sc(NC(=O)c2cccc(Cl)c2)c1C#N"
targetundertest = "Luciferin 4-monooxygenase (Photinus pyralis, UniProt P08659)"
propertylabel = "EC50"
result = "> 112 µM (not active)"

[[record]]
compound = "O=C(c1ccccc1)c1cc2ccc(O)cc2oc1=O"
targetundertest = "Luciferin 4-monooxygenase (Photinus pyralis, UniProt P08659)"
propertylabel = "EC50"
result = "1.14 µM (active)"

[[record]]
compound = "COc1ccc(C(=O)/C=C/Nc2cc(C)ccn2)cc1"
targetundertest = "Luciferin 4-monooxygenase (Photinus pyralis, UniProt P08659)"
propertylabel = "EC50"
result = "1.69 µM (active)"

[[record]]
compound = "Cc1cc(NC(=O)c2ccccc2Cl)no1"
targetundertest = "Luciferin 4-monooxygenase (Photinus pyralis, UniProt P08659)"
propertylabel = "EC50"
result = "> 112 µM (not active)"

[[record]]
compound = "Cc1nnc(N2C(=O)C(O)=C(C(=O)c3ccco3)C2c2ccc(C(C)(C)C)cc2)s1 (configuration not stated)"
targetundertest = "Luciferin 4-monooxygenase (Photinus pyralis, UniProt P08659)"
propertylabel = "EC50"
result = "> 112 µM (not active)"

[[record]]
compound = "CC(=O)C1C(c2ccc(Cl)cc2)NC(=O)NC1(O)C(F)(F)F (configuration not stated)"
targetundertest = "Luciferin 4-monooxygenase (Photinus pyralis, UniProt P08659)"
propertylabel = "EC50"
result = "> 112 µM (not active)"

[[record]]
compound = "COc1ccc(Cl)cc1NC(=O)Nc1cc(C)on1"
targetundertest = "Luciferin 4-monooxygenase (Photinus pyralis, UniProt P08659)"
propertylabel = "EC50"
result = "> 112 µM (not active)"

[[record]]
compound = "COc1cc(/C=N/n2cnnc2)ccc1OCc1ccc(C)cc1"
targetundertest = "Luciferin 4-monooxygenase (Photinus pyralis, UniProt P08659)"
propertylabel = "EC50"
result = "> 112 µM (not active)"

[[record]]
compound = "Nc1ncnc2c1ncn2[C@@H]1O[C@H](COP(=O)(O)O)[C@@H](O)[C@@H]1O"
targetundertest = "Luciferin 4-monooxygenase (Photinus pyralis, UniProt P08659)"
propertylabel = "EC50"
result = "1.08 µM (active)"

[[record]]
compound = "COC(=O)c1[nH]c2ccccc2c1NC(=O)CN1CCN(C(=O)c2ccco2)CC1"
targetundertest = "Luciferin 4-monooxygenase (Photinus pyralis, UniProt P08659)"
propertylabel = "EC50"
result = "> 112 µM (not active)"

[[record]]
compound = "Oc1ccc[n+](CCCCC[n+]2cccc(O)c2)c1"
targetundertest = "Luciferin 4-monooxygenase (Photinus pyralis, UniProt P08659)"
propertylabel = "EC50"
result = "> 112 µM (not active)"

[[record]]
compound = "Cc1cc(C#N)c2ccccc2n1"
targetundertest = "Luciferin 4-monooxygenase (Photinus pyralis, UniProt P08659)"
propertylabel = "EC50"
result = "> 112 µM (not active)"

